The variants listed here are annotated with their self-cleavage.
B1: CPEB3 Ribozyme (parent)
chain: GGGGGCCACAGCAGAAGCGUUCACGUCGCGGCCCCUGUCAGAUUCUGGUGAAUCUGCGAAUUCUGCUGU

# Variants of: B1
# test-summary: self-cleavage, relative activity (ratio to wild type); higher = more cleavage; co-transcriptional
Give the value as a plain number.

// below: answered variants
[[record]]
residue_change = "C6U U64A"
reported_measurement = 0.853

[[record]]
residue_change = "U46C U62G"
reported_measurement = 0.916

[[record]]
residue_change = "C22A G58A"
reported_measurement = 0.179

[[record]]
residue_change = "A8C U69G"
reported_measurement = 1.04

[[record]]
residue_change = "G19U A40U"
reported_measurement = 0.237

[[record]]
residue_change = "C32U A52G"
reported_measurement = 0.967

[[record]]
residue_change = "A8C C34A"
reported_measurement = 0.834

[[record]]
residue_change = "A10U U53A"
reported_measurement = 0.981

[[record]]
residue_change = "U20G A40C"
reported_measurement = 0.243

[[record]]
residue_change = "U21A"
reported_measurement = 0.979


// next item, self-cleavage requested
Problem: Entry under review: U21C U61G . Reported self-cleavage?
Result: 0.7
